# Assay Procedure: Clearance in CD-1 mouse at 1 mg/kg, iv by LC/MS/MS analysis
# Assay type: ADME, organism-based
# Design: dose 1 mg/kg, route intravenous
# Measurement Context: in vivo
Reported Property: clearance (mL/min/kg)
Answers are plain numbers, in mL/min/kg.

Prompt: // returns reported clearance for input O=C(c1nn2c(C(F)(F)F)cc(C3CC3)cc2c1Cl)N1CCN([C@H]2C[C@@H]3C[C@@H]3[C@@H]2O)C(=O)C1
Completion: 19

----------
# Assay Procedure: AUC (0 to infinity) in CD-1 mouse at 5 mg/kg, po by LC/MS/MS analysis
# Type: ADME, organism-based
# Design: time infinity, dose 5 mg/kg, route oral
# Measurement Context: plasma
Reported Property: AUC(0-inf) (ng·h/mL)
One number for each entry, in ng·h/mL.

Prompt: // returns reported AUC(0-inf) for input O=C(c1nn2c(C(F)(F)F)cc(C3CC3)cc2c1Cl)N1CCN([C@H]2C[C@@H]3C[C@@H]3[C@@H]2O)C(=O)C1
Completion: 1000

----------
# Assay Procedure: Volume of distribution at steady state in CD-1 mouse at 1 mg/kg, iv by LC/MS/MS analysis
# Format: ADME, organism-based
# Set-up: dose 1 mg/kg, route intravenous
# Measurement Context: in vivo, read-out: Vdss
Reported Property: Vd (L/kg)
Give bare numbers, in L/kg.

Prompt: // returns reported Vd for input O=C(c1nn2c(C(F)(F)F)cc(C3CC3)cc2c1Cl)N1CCN([C@H]2C[C@@H]3C[C@@H]3[C@@H]2O)C(=O)C1
Completion: 0.6

----------
# Assay Procedure: Volume of distribution at steady state in beagle dog at 1 mg/kg, iv by LC/MS/MS analysis
# Assay type: ADME, organism-based, Canis lupus familiaris
# Parameters: dose 1 mg/kg, route intravenous
# Measurement Context: in vivo, read-out: Vdss
Reported Property: Vd (L/kg)
Numbers only, in L/kg.

Prompt: // returns reported Vd for input O=C(c1nn2c(C(F)(F)F)cc(C3CC3)cc2c1Cl)N1CCN([C@H]2C[C@@H]3C[C@@H]3[C@@H]2O)C(=O)C1
Completion: 0.7

----------
# Assay Procedure: Oral bioavailability in CD rat at 5 mg/kg by LC/MS/MS analysis
# Type: ADME, organism-based
# Measurement Context: in vivo
Reported Property: bioavailability (%)
Numbers only, in %.

Prompt: // returns reported bioavailability for input O=C(c1nn2c(C(F)(F)F)cc(C3CC3)cc2c1Cl)N1CCN([C@H]2C[C@@H]3C[C@@H]3[C@@H]2O)C(=O)C1
Completion: 92

----------
# Assay Procedure: Aqueous solubility in fasted state simulated intestinal fluid at pH 6.5 by LC/UV analysis
# Format: physicochemical
Give measured solubility for each item. Keep answers brief.
Give bare numbers, in µg/mL.

>>> observed_measurement("O=C(c1nn2c(C(F)(F)F)cc(C3CC3)cc2c1Cl)N1CCN([C@H]2C[C@@H]3C[C@@H]3[C@@H]2O)C(=O)C1")
310

Attention now turns to another entry.
Prompt: // returns reported solubility for input O=C(c1nc2c(C(F)(F)F)cc(C3CC3)cn2c1Cl)N1CCN([C@H]2CC[C@H](O)CC2)C(=O)C1
Completion: 11

----------
# Assay Procedure: Toxicity in po dosed PXB mouse assessed as induction of metabolism administered bid every 12 hrs for 7 days
# Assay type: organism-based
# Measurement Context: in vivo
Reported Property: MTD at 7 days (mg/kg)
Give bare numbers, in mg/kg.

Prompt: // returns reported MTD at 7 days for input O=C(c1nc2c(C(F)(F)F)cc(C3CC3)cn2c1Cl)N1CCN([C@H]2CC[C@H](OP(=O)(O)O)CC2)C(=O)C1
Completion: 30

----------
# Assay Procedure: AUC (0 to infinity) in cynomolgus monkey at 5 mg/kg, po by LC/MS/MS analysis
# Assay type: ADME, organism-based, Macaca fascicularis
# Set-up: time infinity, dose 5 mg/kg, route oral
# Measurement Context: plasma
Reported Property: AUC(0-inf) (ng·h/mL)
One number for each entry, in ng·h/mL.

Prompt: // returns reported AUC(0-inf) for input O=C(c1nn2c(C(F)(F)F)cc(C3CC3)cc2c1Cl)N1CCN([C@H]2C[C@@H]3C[C@@H]3[C@@H]2O)C(=O)C1
Completion: 25000

----------
Give measured fraction unbound at 4 h, 5 µM for each item. Keep answers brief.
# Assay Procedure: Plasma protein binding in beagle dog at 5 uM after 4 hrs by rapid equilibrium dialysis method
# Type: ADME, cell-free, Canis lupus familiaris
# Measurement Context: read-out: PPB (converted)
One number for each entry.

>>> observed_measurement("O=C(c1nn2c(C(F)(F)F)cc(C3CC3)cc2c1Cl)N1CCN([C@H]2C[C@@H]3C[C@@H]3[C@@H]2O)C(=O)C1")
0.07

Attention now turns to another entry.
Prompt: // returns reported fraction unbound at 4 h, 5 µM for input O=C(c1nc2c(C(F)(F)F)cc(C3CC3)cn2c1Cl)N1CCN([C@H]2CC[C@H](O)CC2)C(=O)C1
Completion: 0.34

----------
# Study Target: Cytochrome P450 1A2 (Homo sapiens, UniProt P05177)
# Sequence (P05177 whole entry): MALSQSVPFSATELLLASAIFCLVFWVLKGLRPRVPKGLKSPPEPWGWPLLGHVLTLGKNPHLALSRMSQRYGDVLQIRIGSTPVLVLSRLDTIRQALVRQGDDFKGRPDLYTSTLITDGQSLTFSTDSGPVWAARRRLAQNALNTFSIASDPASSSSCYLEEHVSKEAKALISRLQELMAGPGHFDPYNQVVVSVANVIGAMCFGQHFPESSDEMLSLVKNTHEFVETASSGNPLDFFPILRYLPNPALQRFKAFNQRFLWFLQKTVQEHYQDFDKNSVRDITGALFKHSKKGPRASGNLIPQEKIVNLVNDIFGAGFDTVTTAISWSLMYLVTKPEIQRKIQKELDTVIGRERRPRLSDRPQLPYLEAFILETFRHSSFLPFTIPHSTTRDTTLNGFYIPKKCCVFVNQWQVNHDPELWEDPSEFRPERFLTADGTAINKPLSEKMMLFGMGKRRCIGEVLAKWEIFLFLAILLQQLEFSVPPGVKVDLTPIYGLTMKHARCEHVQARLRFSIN
Reported Property: IC50

Prompt: // returns reported IC50 for input O=C(c1nn2c(C(F)(F)F)cc(C3CC3)cc2c1Cl)N1CCN([C@H]2C[C@@H]3C[C@@H]3[C@@H]2O)C(=O)C1
Completion: > 20 µM
